Field: abundance fitness. Provide a value for each of the variants that follow.
B1: 1-phosphatidylinositol 4,5-bisphosphate phosphodiesterase gamma-2, residues 772 to 827; numbered along this chain, P16885 (parent)
chain: RTVKALYDYKAKRSDELSFCRGALIHNVSKEPGGWWKGDYGTRIQQYFPSNYVEDI

# Variants of: B1
# Method Notes: abundance fitness (aPCA) (normalised: wild type 0, dead -1); higher = more abundant; growth selection in yeast, the domain comes from the species named
# Conditions: Homo sapiens
Enter the number alone.

Form: variant = "E54D" ; abundance fitness = -0.291

Please fill in: abundance fitness reported for "D55H" = -0.213

Consider "N51C" . Its measured abundance fitness is 0.13

Data point: "Q46L" ; abundance fitness = -0.041

Input "S18E" . Output abundance fitness: 0.018

Sure, the documented abundance fitness for "K10Q" is -0.002

Lab note: "G22S" gave abundance fitness of -0.681

Recorded result, "D55Y" , abundance fitness: -0.287

Record "S14C" , field abundance fitness: -0.124

Per the records, this variant ( "Q45W" ) has abundance fitness equal to -0.916

Per the record, "I25R" has abundance fitness of -0.976

The variant listed as "L6D" has a reported abundance fitness of -0.577

Reported abundance fitness of "A5I" : -0.903

Field abundance fitness (entry "Q46G" ) reads 0.086

Record summary for "L24D" : reported abundance fitness = -0.781

Form: variant = "D15A" ; abundance fitness = -0.182

// field: abundance fitness; key: "K12P" ; value = -0.93

Form field abundance fitness, entry "L24G" : -0.837

So, "V28S" ? Its abundance fitness was -0.836

Consider "D55V" . Its measured abundance fitness is -0.238

Notebook: "A23E" , abundance fitness read as -0.052

The reported abundance fitness of the variant "W36F" was -0.308
